measured_quantity: melting point

See these solved cases before continuing.
input: What value of melting point has been recorded for this entry: CCCn1cc(C(=O)Nc2nccs2)c2ccc(Cl)cc21
output: 175 to 176 °C

input: What value of melting point has been recorded for this entry: CCCCCCOc1ccc(CBr)c2c(OCCCCCC)ccc(CBr)c12
output: 105 to 107 °C

Others:
input: What value of melting point has been recorded for this entry: O=C(O)c1cc(Br)cnc1Cl
output: 174 to 177 °C

input: What value of melting point has been recorded for this entry: Cc1nc(-c2ccccc2Cl)sc1-c1ccccc1
output: 63 to 65 °C

----------
Listed compounds paired with reported melting point

See these solved cases before continuing.
input: What value of melting point has been recorded for this entry: COc1ccc(N2CCOCC2)c2sc(C(N)=S)nc12
output: 238 °C

input: What value of melting point has been recorded for this entry: CCCc1nc2cccc(C(=O)O)c2n1Cc1ccc(-c2ccccc2-c2nc(=O)o[nH]2)cc1
output: 169 to 171 °C

input: What value of melting point has been recorded for this entry: CCCc1nc2cc(C(=O)c3ccccc3)ccc2n1Cc1ccc(C(=O)OCC)cc1
output: 126 to 128 °C

input: What value of melting point has been recorded for this entry: COC1(c2cc(Sc3ccc(/C(C)=N/O)cc3)nc(N)n2)CCOCC1
output: 237 to 240 °C

input: What value of melting point has been recorded for this entry: COC(=O)c1cc(S(C)(=O)=O)ccc1OCC(C)C
output: 76 to 81 °C

input: What value of melting point has been recorded for this entry: O=C(Nc1ccc(-n2nc(C(F)(F)F)cc2C2CC2)cc1)c1ccc2nccnc2c1
output: 205 to 209 °C

Others:
input: What value of melting point has been recorded for this entry: CCOC(=O)CC(=O)Nc1ccc(Cl)c(Cl)c1
output: 74 to 75 °C

input: What value of melting point has been recorded for this entry: CCN1CCC(NC(=O)c2ccc(NC(C)=O)cc2)N1CC (stereo not given)
output: 178 to 180 °C

input: What value of melting point has been recorded for this entry: CCCC/C=C\CCCCCCCC(=O)Nc1nc(CC(=O)O)cs1
output: 110 to 111 °C

input: What value of melting point has been recorded for this entry: N=C(N)NC1CCC(CCN2CCN(c3ccccc3)CC2)CC1 (stereo not given)
output: 140 to 170 °C

----------
Listed molecules paired with reported melting point

input: What value of melting point has been recorded for this entry: CC(C)CP(=O)(CCC(=O)O)CCC(=O)O
output: 186 to 187 °C

input: What value of melting point has been recorded for this entry: CCc1ccc(-c2ccc3c(c2)C=C(C(=O)O)CCO3)cc1
output: 241 to 243 °C

input: What value of melting point has been recorded for this entry: COc1cc(C2CCN(C)CC2)ccc1-c1nc2c(N[C@H]3[C@@H](C(N)=O)[C@@H]4C=C[C@H]3C4)c(Cl)cnc2[nH]1
output: 232 to 235 °C

input: What value of melting point has been recorded for this entry: Cc1cc2c(cc1C1=NNC(=O)CC1C)N(C)C(=O)C(C)O2 (stereo not given)
output: 190 to 192 °C

input: What value of melting point has been recorded for this entry: O=C(O)Cc1ccccc1Sc1ccc(F)c(F)c1
output: 54 to 57 °C

Others:
input: What value of melting point has been recorded for this entry: CONC(=O)CC1=C(C)/C(=C/c2ccc(S(C)=O)cc2)c2ccc(F)cc21 (stereo not given)
output: 177 to 179 °C

input: What value of melting point has been recorded for this entry: Cc1nccn1CCCNC(=O)c1cccc2oc(-c3ccccc3)nc12
output: 145 to 148 °C

input: What value of melting point has been recorded for this entry: NNC(=O)c1ccc2ncccc2c1
output: 193 to 194 °C

input: What value of melting point has been recorded for this entry: O=C(Nc1cccc(F)c1)C1C(=O)Sc2ccccc21 (stereo not given)
output: 169 to 171 °C

input: What value of melting point has been recorded for this entry: N#Cc1cc([N+](=O)[O-])ccc1Oc1ccc(Cl)c(Cl)c1
output: 154 to 155 °C

These measurements were taken from a melting point compilation (Tetko et al.; mined from patent text by program, amines drawn as free bases though some values may be those of a salt).
